Target: Human IMPα1 aa 71–529 (lacking the IMPβ binding domain) (human, UniProt P52292 71-529)
Assay: FP
No end group written: not given here.
Measured Quantity: Kd (nM)

SGKRKKIRTIAAYPLGVGKS (also: FITC-labelled, site not given here) [FITC-labelled HeV M NLS1 peptide]	560
